This collection of values is drawn from patent US20220396627A1.

system name: Human Siglec-9-Fc (recombinant human Siglec-9 extracellular domain Q18-G348 fused to human IgG1 Fc) (human)
Sequence (chain, as listed by the source limits assumed): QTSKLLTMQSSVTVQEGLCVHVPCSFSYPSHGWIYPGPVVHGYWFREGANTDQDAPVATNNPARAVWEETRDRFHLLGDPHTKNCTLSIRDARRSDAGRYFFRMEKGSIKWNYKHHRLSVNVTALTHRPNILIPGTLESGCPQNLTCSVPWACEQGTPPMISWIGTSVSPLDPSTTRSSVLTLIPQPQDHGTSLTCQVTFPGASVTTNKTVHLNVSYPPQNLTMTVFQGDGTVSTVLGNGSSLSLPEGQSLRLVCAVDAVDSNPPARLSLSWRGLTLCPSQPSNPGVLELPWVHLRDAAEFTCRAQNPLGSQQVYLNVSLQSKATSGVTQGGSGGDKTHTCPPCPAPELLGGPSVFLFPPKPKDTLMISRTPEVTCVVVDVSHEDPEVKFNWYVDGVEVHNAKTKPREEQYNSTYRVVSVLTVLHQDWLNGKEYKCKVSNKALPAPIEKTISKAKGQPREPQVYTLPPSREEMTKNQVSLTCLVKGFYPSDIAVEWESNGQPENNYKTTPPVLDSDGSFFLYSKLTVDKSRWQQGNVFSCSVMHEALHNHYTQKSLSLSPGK
procedure summary: BLI binning, hSiglec-9-Fc on AHC sensor; competitor bound first (row): 2F15
Procedure: Epitopic diversity of functional antibodies was further assessed by antibody cross-blocking experiments, performed on a ForteBio Octet Red384 system. All samples were prepared in black 384-well flat bottom plates from (Greiner, Cat. #781209) with a working volume of 120 uL and diluted in kinetics buffer (1×DPBS containing 0.1% bovine serum albumin, 0.05% sodium azide, and 0.02% Tween®20). […] Binning results were calculated using ForteBio Data Analysis HT software. […]
property name: maximum binding nm shift

[
  {
    "binder": "12L19 (antibody, V domains shown) VH: QVTLKESGPGILQPSQTLSLTCSFSGFSLNTFGMAVGWIRQPSGKGLEWLAHIWWDDSYYFNPALRSRLTISKDTSKNQVFLTIANVDTADTATYYCTRIPDDYDDYAMDYWGQGTSVTVSS VL: DVVMTQTPLSLPVSLGDQASISCRSSQSLVHSNGNTYLHWYLQKPGQSPKLLVYKVSNRFSGVPDRFSGSGSGTDFTLKISRVEAEDLGVYFCSQNTHIPYTFGGGTKLEIK",
    "maximum binding nm shift": "0.198 nm"
  },
  {
    "binder": "13O18 (antibody, V domains shown) VH: EVQLQQSGPELVRPGASVKMSCKASGYTFTDYNMHWVKQSHGKSLEWIGYINPNNGGTTYNQNFKGKATLTVNKSSSTAYMELRSLTSEDSAVYYCAREGYGNYPFYWGQGTTLTVSS VL: DIVLTQSPASLAVSLGQRVTISCRASESVEYYGTSLMQWYQQKPGQPPKLLIYAASNVESGVPARFSGSGSGTDFSLNIHPVEEDDIAMFFCQQDRKVPYTFGGGTKLEIK",
    "maximum binding nm shift": "0.003 nm"
  }
]

Sample 9D21 (antibody, V domains shown) VH: QVQLKESGPGLVAPSQSLSITCTVSGFSLTRYGVSWVRQPPGKGLEWLGVIWGDGSTNYHSALISRLSISKDNSKSQVFLKLNSLQTDDTATYYCARPYYGFFDYWGQGTTLTVSS VL: SIVMTQTPKFLLVSAGDRVTITCKASQSVSNAVAWYQQKPGQSPKMLIYYASNRYTGVPDRFTGSGYGTDFTFTISTVQAEDLAVYFCQQDYSSPYTFGGGTKLEIK ; maximum binding nm shift observed: 0.619 nm
